test system: TNF-α; test: TNF-α Production Inhibition Test in LPS-treated U 937 cells; type: cell-based; conditions: U 937 cells differentiated with PMA; LPS 10 ng/ml, 6 hours; human TNF-α ELISA
RESULT_TYPE: log10(IC50) (log10 of the value in µM)
All values: log10 IC50 [µM].

See these solved cases before continuing.
COMPOUND: COc1cnc(/C(C#N)=C/c2ccnc3ccccc23)cc1OC1CCCC1 [Example 10]
SYSTEM_NAME: TNF-α
REPORTED: 1.00

COMPOUND: COc1ccc(C2CNC(=O)C2)cc1OC1CCCC1 (stereo not drawn) [Rolipram, reference compound]
SYSTEM_NAME: TNF-α
REPORTED: 2.00

COMPOUND: COc1cnc(/C(C#N)=C/c2c(Cl)cncc2Cl)cc1O[C@@H]1C[C@H]2CC[C@@H]1C2 (relative stereo) [Example 21]
SYSTEM_NAME: TNF-α
REPORTED: 1.12

COMPOUND: COc1cnc(/C(C#N)=C/c2ccncc2)cc1OC1CCCC1 [Example 4]
SYSTEM_NAME: TNF-α
REPORTED: 0.88

COMPOUND: COc1cnc(/C(C#N)=C/c2c(Cl)cncc2Cl)cc1OC1Cc2ccccc2C1 [Example 19]
SYSTEM_NAME: TNF-α
REPORTED: 0.46

log10(IC50) of COc1cnc(/C(C#N)=C/c2c(Cl)cncc2Cl)cc1OC1CCCC1 [Example 1] , assay on TNF-α, is 1.01

log10(IC50) of CCCCOc1cc(/C(C#N)=C/c2c(Cl)cncc2Cl)ncc1OC [Example 16] , assay on TNF-α, is 1.12

log10(IC50) of COc1cnc(/C(C#N)=C/c2c(Cl)cncc2Cl)cc1OC1CCOC1 (stereo not drawn) [Example 20] , assay on TNF-α, is 0.85

log10(IC50) of COc1cnc(/C(C#N)=C/c2c(OC)cncc2OC)cc1OC1CCCC1 [Example 11] , assay on TNF-α, is 0.74

---

target: PDE V (Homo sapiens); construct: isolated from human tissue and purified in accordance with the method described in literature; test: PDE Inhibitory Activity Test, PDE V; conditions: human platelet PDE V; substrate 1 μM; 20 min at 30° C.
RESULT_TYPE: IC50 (µM)
Give the quantity in µM, number only.

SMILES_TEXT: CCCCOc1cc(/C(C#N)=C/c2c(Cl)cncc2Cl)ncc1OC
RESULT_TYPE: IC50
REPORTED: 31
//
SMILES_TEXT: COc1cnc(/C(C#N)=C/c2c(Cl)cncc2Cl)cc1OCCCc1ccccc1
RESULT_TYPE: IC50
REPORTED: 56
//
SMILES_TEXT: COc1cnc(/C(C#N)=C/c2c(Cl)cncc2Cl)cc1OCCc1ccccc1
RESULT_TYPE: IC50
REPORTED: 5.6

Consider the additional compound presented here.
For this compound ( CCOc1cnc(/C(C#N)=C/c2c(Cl)cncc2Cl)cc1OC1CCCC1 ), measured IC50 is 12
